System: SN12C renal
Assay: NCI-60 one-dose screen, 48 h
Settings: 10 µM unless noted
The panel holds about 83,000 compounds, 20% with a hit somewhere; the sample as a whole holds those more often. Active and inactive are the calls of the source. How the source made its calls: active means growth percent below 10; inactive means the rest.
Just give me one of these, please: yes (active), no (inactive)

*Q* Status in this test for CC(C)(C)n1cc(-c2ccnc(NCCCNS(=O)(=O)c3ccc(Cl)cc3)c2)c(-c2cccc(O)c2)n1 ?
*A* no

*Q* Recorded test outcome, item COc1ccc(-c2nc(/C=C3/C(=O)Nc4ccc(F)cc43)c3ccccn23)cc1
*A* no

*Q* Check the results log: what was the call for COc1cc(-c2nn(-c3cccc(NC(=O)c4ccc(N5CCOCC5)c(C(F)(F)F)c4)c3)cc2-c2ccncc2)ccc1Cl ?
*A* no

*Q* Recorded call for O=C1c2c(c3c4ccccc4n(CCCCCCBr)c3c3[nH]c4ccccc4c23)C(=O)N1O ?
*A* yes

*Q* Assay outcome for C=C1CCC2C3(C)COC(C)(C)OC3CCC2(C)C1C/C=C1/C(=O)OCC1Oc1ccccc1OC (stereo not given) : what was it?
*A* no

*Q* Record lookup: outcome of this test for CCN(CC)c1ccc(/C=C2\Oc3ccc(O)c(I)c3C2=O)cc1 ?
*A* no

*Q* How did this test come out for COc1ccc(C2NN=C3c4ccccc4CCC32)cc1 (stereo not given) ?
*A* no

*Q* Dear all, I need the recorded test outcome for O=C1c2ccccc2-c2ccccc2C1(Cl)Cl , thank you.
*A* yes

*Q* Outcome? Cc1cc(N/N=C/c2nc(-c3ccccc3)oc2C)c2cc(Cl)ccc2n1
*A* yes

*Q* // return assay outcome for CC1(c2ccc(Cl)cc2)OC(=O)CC(=O)O1
*A* no

*Q* How was CCC1=CCC[C@@]2(C)CCC[C@@]3(C)CCCC(C)(C)[C@]1([O-])[O+]32 classified in this test?
*A* no

*Q* What did the test return for O=C1/C(=C/c2ccc([N+](=O)[O-])cc2)CN(C(=O)CCN2CCC(=NO)CC2)C/C1=C\c1ccc([N+](=O)[O-])cc1 ?
*A* yes

*Q* // outcome(item) with item = CC(C)CSc1nc(NN)c(C#N)c(-c2ccc(F)cc2)n1
*A* no

*Q* Hi, sorry to bother you, what did the test record for CCNc1nc(S(=O)(=O)CC)nc2ccccc12 ?
*A* no

*Q* // outcome(item) with item = C=C1C(=O)O[C@H]2[C@H]1CC/C(Cn1cc(CNC(=O)c3cc4ccccc4[nH]3)nn1)=C\CC[C@@]1(C)O[C@@H]21
*A* no

*Q* Outcome logged for NNc1cccc(/C=C/c2ccccc2)cc1=O in this assay:
*A* no

*Q* Hi, do you know how Fc1ccc(-c2nc(-c3nc4ncccc4[nH]3)cc3c2[nH]c2ccccc23)cc1F came out in this test?
*A* no

*Q* Dear all, I need the recorded test outcome for CC(C)(C)n1cc(-c2ccnc(NCCCNS(=O)(=O)c3ccc(Br)cc3)c2)c(-c2cccc(O)c2)n1 , thank you.
*A* no

*Q* Given COc1ccc(OC)c(/C=C2\Oc3cc(OCCCN4CCCC4)ccc3C2=O)c1 , state the outcome it received in this test.
*A* no

*Q* Which outcome was assigned to NC(=O)c1c(NC(=S)Nc2ccc(OC(F)(F)F)cc2)sc2c1CCC1(C2)OCCO1 in this test?
*A* no
